Target: DNA repair nuclease/redox regulator APEX1 (Homo sapiens) (UniProt P27695)
Sequence (P27695 whole entry, looked up): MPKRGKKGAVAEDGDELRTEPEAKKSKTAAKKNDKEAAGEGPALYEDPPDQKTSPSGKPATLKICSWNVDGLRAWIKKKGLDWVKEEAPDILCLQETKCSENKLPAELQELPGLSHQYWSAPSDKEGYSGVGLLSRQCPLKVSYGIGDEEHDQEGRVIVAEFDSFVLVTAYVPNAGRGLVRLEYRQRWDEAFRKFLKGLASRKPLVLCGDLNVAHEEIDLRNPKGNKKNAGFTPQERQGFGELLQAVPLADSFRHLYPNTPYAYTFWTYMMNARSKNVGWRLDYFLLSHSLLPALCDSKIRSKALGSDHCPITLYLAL
Experiment: qHTS Assay for Inhibitors of the Human Apurinic/apyrimidinic Endonuclease 1 (APE1); further: nearly all actives have a fitted effect of over 55% in size
Settings: recombinant APE1, TAMRA/BHQ-2 abasic DNA cleavage fluorescence
Out of some 350,000 compounds screened, about 1,200 (0.34%) were called active. Another 3% or so got no clear call; they are omitted. The call rests on the fitted dose curve; in most records, active means well fitted inhibition curve with a large enough effect; inconclusive means small, poorly fitted or top-dose-only effect; inactive means no such curve, though single readings can be large or run the other way. For the sample, actives were picked, then their nearest neighbours and some compounds at random.
Outcomes: true (1) for active, false (0) for inactive

[[record]]
compound = "C=CCOC(=O)COCCC(C)C"
measured_target = "DNA repair nuclease/redox regulator APEX1 (Homo sapiens) (UniProt P27695)"
cat = "false (0)"

[[record]]
compound = "COc1cccc([C@@H]2Oc3ccc(Br)cc3C(=O)[C@H]2OC(=O)NCCc2ccc(OC)c(OC)c2)c1"
measured_target = "DNA repair nuclease/redox regulator APEX1 (Homo sapiens) (UniProt P27695)"
cat = "false (0)"

[[record]]
compound = "COc1ccc(/C=C(\\C#N)C(=O)OCC(=O)N(C)C2CCS(=O)(=O)C2)cc1 (stereo not given)"
measured_target = "DNA repair nuclease/redox regulator APEX1 (Homo sapiens) (UniProt P27695)"
cat = "false (0)"

[[record]]
compound = "Cc1cc(C(=O)OCC(=O)N2c3ccccc3NC(=O)C2(C)C)c(C)n1-c1ccccc1"
measured_target = "DNA repair nuclease/redox regulator APEX1 (Homo sapiens) (UniProt P27695)"
cat = "false (0)"

[[record]]
compound = "C=CCNc1oc(-c2cccnc2)nc1C#N"
measured_target = "DNA repair nuclease/redox regulator APEX1 (Homo sapiens) (UniProt P27695)"
cat = "false (0)"

[[record]]
compound = "CCCCC/C=C/C=C/C=O"
measured_target = "DNA repair nuclease/redox regulator APEX1 (Homo sapiens) (UniProt P27695)"
cat = "false (0)"

[[record]]
compound = "O=C(CN1CCN(S(=O)(=O)/C=C/c2ccccc2)CC1)NC(=O)NCc1ccco1"
measured_target = "DNA repair nuclease/redox regulator APEX1 (Homo sapiens) (UniProt P27695)"
cat = "true (1)"

[[record]]
compound = "Cc1ccc(CNc2ccc(N3CCN(C(=O)OC(C)(C)C)CC3)cc2)cc1"
measured_target = "DNA repair nuclease/redox regulator APEX1 (Homo sapiens) (UniProt P27695)"
cat = "false (0)"

[[record]]
compound = "O=C(CN1C(=O)c2cccc3cccc(c23)C1=O)N1CCCCC1"
measured_target = "DNA repair nuclease/redox regulator APEX1 (Homo sapiens) (UniProt P27695)"
cat = "false (0)"

[[record]]
compound = "COC(=O)C(C(=O)OC)[C@@H](NC=O)c1ccccc1"
measured_target = "DNA repair nuclease/redox regulator APEX1 (Homo sapiens) (UniProt P27695)"
cat = "false (0)"

[[record]]
compound = "CCNc1ccc(C(=O)OCC(=O)N2c3ccccc3NC(=O)C2(C)C)cc1[N+](=O)[O-]"
measured_target = "DNA repair nuclease/redox regulator APEX1 (Homo sapiens) (UniProt P27695)"
cat = "false (0)"

[[record]]
compound = "CC[C@H](C)[C@H](NC(=O)[C@H](CCCNC(=N)N)NC(=O)[C@H](CCCNC(=N)N)NC(=O)[C@H](CC(C)C)NC(=O)[C@H](Cc1ccccc1)NC(=O)CNC(=O)CNC(=O)[C@@H](N)Cc1ccc(O)cc1)C(=O)N[C@@H](CCCNC(=N)N)C(=O)N1CCC[C@H]1C(=O)N[C@@H](CCCCN)C(=O)N[C@@H](CC(C)C)C(=O)N[C@@H](CCCCN)C(=O)N[C@@H](Cc1c[nH]c2ccccc12)C(=O)N[C@@H](CC(=O)O)C(=O)N[C@@H](CC(N)=O)C(=O)N[C@@H](CCC(N)=O)C(=O)O"
measured_target = "DNA repair nuclease/redox regulator APEX1 (Homo sapiens) (UniProt P27695)"
cat = "false (0)"

[[record]]
compound = "O=C(c1ccncc1)N1CCC2(CCCN(C(c3ccccc3)c3ccccc3)C2)CC1"
measured_target = "DNA repair nuclease/redox regulator APEX1 (Homo sapiens) (UniProt P27695)"
cat = "false (0)"

[[record]]
compound = "Cc1sc2nc(CSCC(=O)NC3CCCCC3)[nH]c(=O)c2c1C"
measured_target = "DNA repair nuclease/redox regulator APEX1 (Homo sapiens) (UniProt P27695)"
cat = "false (0)"

[[record]]
compound = "N#Cc1ccc(CN2CCCC3(CCN(C(=O)c4ccco4)CC3)C2)cc1"
measured_target = "DNA repair nuclease/redox regulator APEX1 (Homo sapiens) (UniProt P27695)"
cat = "false (0)"

[[record]]
compound = "OC(CCl)CCl"
measured_target = "DNA repair nuclease/redox regulator APEX1 (Homo sapiens) (UniProt P27695)"
cat = "false (0)"

[[record]]
compound = "CN(C(=O)COC(=O)Cc1ccccc1[N+](=O)[O-])C1CCS(=O)(=O)C1 (stereo not given)"
measured_target = "DNA repair nuclease/redox regulator APEX1 (Homo sapiens) (UniProt P27695)"
cat = "false (0)"

[[record]]
compound = "COc1ccccc1N1CCN(CC(=O)NC(=O)NCc2ccco2)CC1"
measured_target = "DNA repair nuclease/redox regulator APEX1 (Homo sapiens) (UniProt P27695)"
cat = "false (0)"

[[record]]
compound = "COc1ccc2c3c1OC1CC(O)C=C[C@@]31CCN(C)C2 (stereo not given in full)"
measured_target = "DNA repair nuclease/redox regulator APEX1 (Homo sapiens) (UniProt P27695)"
cat = "false (0)"

[[record]]
compound = "Cn1c(SCC(=O)N/N=C/c2ccc(O)c(O)c2)nc2ccccc21"
measured_target = "DNA repair nuclease/redox regulator APEX1 (Homo sapiens) (UniProt P27695)"
cat = "false (0)"

[[record]]
compound = "CC(C)C(N)C(=O)OCCOCn1cnc2c(=O)[nH]c(N)nc21 (stereo not given)"
measured_target = "DNA repair nuclease/redox regulator APEX1 (Homo sapiens) (UniProt P27695)"
cat = "false (0)"

[[record]]
compound = "COc1ccc(C(=O)N2CCC3(CC2)CCN(c2ccccn2)CC3)cc1"
measured_target = "DNA repair nuclease/redox regulator APEX1 (Homo sapiens) (UniProt P27695)"
cat = "false (0)"

[[record]]
compound = "CO[C@H]1C=CO[C@@]2(C)Oc3c(C)c(O)c4c(O)c(c(/C=N/N5CCN(C)CC5)c(O)c4c3C2=O)NC(=O)/C(C)=C\\C=C[C@H](C)[C@H](O)[C@@H](C)[C@@H](O)[C@@H](C)[C@H](OC(C)=O)[C@@H]1C"
measured_target = "DNA repair nuclease/redox regulator APEX1 (Homo sapiens) (UniProt P27695)"
cat = "false (0)"

[[record]]
compound = "CN(C(=O)COC(=O)c1cc(-c2ccco2)nc2ccccc12)C1CCS(=O)(=O)C1 (stereo not given)"
measured_target = "DNA repair nuclease/redox regulator APEX1 (Homo sapiens) (UniProt P27695)"
cat = "true (1)"

[[record]]
compound = "NC(=O)CCN1CCN(S(=O)(=O)/C=C/c2ccccc2)CC1"
measured_target = "DNA repair nuclease/redox regulator APEX1 (Homo sapiens) (UniProt P27695)"
cat = "false (0)"


----------
Molecular target: DNA repair nuclease/redox regulator APEX1 (Homo sapiens)
Experiment: qHTS Assay for Inhibitors of the Human Apurinic/apyrimidinic Endonuclease 1 (APE1); further: nearly all actives have a fitted effect of over 55% in size
Conditions: recombinant APE1, TAMRA/BHQ-2 abasic DNA cleavage fluorescence
Hit rate of the full screen: of about 350,000 compounds, about 1,200 (0.34%) were called active. Not shown: some 3% with an inconclusive outcome. Calls follow the shape of the dose curve; as a rule, active = well fitted inhibition curve with a large enough effect; inconclusive = small, poorly fitted or top-dose-only effect; inactive = no such curve, though single readings can be large or run the other way. Many of the other results were omitted from the sample, so actives are more common in it than they were.
Outcomes: active, inactive

[[record]]
compound = "S=C(NCCCc1cnc[nH]1)NCCCN(Cc1ccc(Cl)c(Cl)c1)c1ccc(Br)cn1"
cat = "inactive"

[[record]]
compound = "COc1cccc(S(=O)(=O)NCc2ccc(C(=O)NCc3ccccn3)cc2)c1"
cat = "inactive"

[[record]]
compound = "CC[C@@]12C=C(/C=C/c3ccccc3)[C@](CC)(C1)[C@H](c1ccccc1)CC2=O"
cat = "inactive"

[[record]]
compound = "Cc1ccc(C(=O)NNc2ncnc3ccccc23)cc1"
cat = "inactive"

[[record]]
compound = "COc1ccc(-c2nn(-c3ccccc3)cc2/C=C2/SC(=S)N(CCCC(=O)O)C2=O)c(C)c1"
cat = "active"

[[record]]
compound = "O=C1N/C(=C/c2cccn2-c2ccccc2)C(=O)N1c1cccc(Cl)c1"
cat = "inactive"

[[record]]
compound = "COCCNC(=O)c1snc2ccc(Cl)cc12"
cat = "inactive"

[[record]]
compound = "OC[C@H]1O[C@@H](n2cnc3c(N[C@H]4CC5CCC4C5)ncnc32)[C@H](O)[C@@H]1O (some centres not stated)"
cat = "inactive"

[[record]]
compound = "COC(=O)C1(C)C=CC2(CCCCC2)N1C(C)=O (configuration not stated)"
cat = "inactive"

[[record]]
compound = "C#CCOCCOCCOCCNc1nc(N2CCN(C(=O)[C@H](Cc3ccc(O)cc3)n3cc(C(N)CC(C)C)nn3)CC2)nc(N2CCN(C(=O)[C@H](CCC(=O)O)n3cc(C(N)[C@H](C)CC)nn3)CC2)n1 (some centres not stated)"
cat = "inactive"

[[record]]
compound = "COc1ccc(OC)c(NC(=O)N[C@H](Cc2ccccc2)C(=O)NN)c1"
cat = "inactive"

[[record]]
compound = "CCOC(=O)C(Cc1ccccc1)NC(=O)CCC(=O)c1ccc(OC)cc1 (configuration not stated)"
cat = "inactive"

[[record]]
compound = "O=c1c(-c2cc(F)cc(F)c2)nc2cnc(Oc3ccccc3)nc2n1C[C@H]1CCCO1"
cat = "inactive"

[[record]]
compound = "O=C(O)c1ccc(/C=C2/SC(=S)N(c3cccc(C(F)(F)F)c3)C2=O)cc1"
cat = "inactive"

[[record]]
compound = "COCCNc1ncnc2ccc(-c3cccnc3)cc12"
cat = "inactive"

[[record]]
compound = "Cc1ccc(C(=O)NNC(=O)c2ccc3c(c2)OCCO3)cc1"
cat = "inactive"

[[record]]
compound = "CC(=O)OCC(=O)C1CCC2C3CCC4=CC(=O)CC[C@@]4(C)C3CC[C@]12C (some centres not stated)"
cat = "inactive"

[[record]]
compound = "Cc1ccc(C(=O)O)cc1-c1ccc(/C=C2\\SC(=O)N(CC(=O)Nc3ccc4c(c3)OCO4)C2=O)o1"
cat = "active"

[[record]]
compound = "COc1ccc(Oc2ncc3nc(-c4ccc(F)cc4)c(=O)n(C)c3n2)cc1"
cat = "inactive"

[[record]]
compound = "O=c1c(O)c(Br)ccc2c(Br)c(O)c(O)c(O)c12"
cat = "active"

[[record]]
compound = "Cc1ccccc1NC(=O)CSC(=O)c1ccccc1"
cat = "inactive"

[[record]]
compound = "COCCNC(=O)Nc1ccc2nc(-c3ccco3)c(-c3ccco3)nc2c1"
cat = "active"

[[record]]
compound = "O=C(Cl)c1ccc([N+](=O)[O-])cc1"
cat = "inactive"

[[record]]
compound = "COc1cccc(/C=C2/SC(=S)N(CC(=O)NC3C=CS(=O)(=O)C3)C2=O)c1 (configuration not stated)"
cat = "inactive"

[[record]]
compound = "Cc1ccc(CCC(=O)Nc2ncc(Cc3cc(Cl)ccc3Cl)s2)o1"
cat = "inactive"

[[record]]
compound = "C#CCOCCOCCOCCNc1nc(N2CCN(C(=O)[C@H](CCCCN)n3cc([C@@H](N)C(C)CC)nn3)CC2)nc(N2CCN(C(=O)[C@H](Cc3ccc(O)cc3)n3cc([C@@H](N)C(C)CC)nn3)CC2)n1 (some centres not stated)"
cat = "inactive"

[[record]]
compound = "O=C(Nc1ccccc1)/C(=C\\c1ccco1)NC(=O)c1ccco1"
cat = "inactive"

[[record]]
compound = "CCOC(=O)C1=C(C)N=C2c3ccccc3C(=O)C2C1c1ccc(Br)cc1 (configuration not stated)"
cat = "inactive"

[[record]]
compound = "Cc1ccc(C(=O)NNC(=O)c2cc3cc4ccccc4nc3s2)cc1"
cat = "active"

[[record]]
compound = "CC/C=C/C/C=C/C/C=C/CCCCCCCC(=O)OCC"
cat = "inactive"

[[record]]
compound = "Cc1ccc(Cc2cnc(N)s2)o1"
cat = "active"

[[record]]
compound = "COC(=O)C/C=C/[C@@H](C)[C@H](NC(=O)OCC(Cl)(Cl)Cl)c1ccccc1"
cat = "inactive"

[[record]]
compound = "O=C(c1ccncc1)N1CCC2(CCN(Cc3cc(C(F)(F)F)cc(C(F)(F)F)c3)CC2)CC1"
cat = "inactive"

[[record]]
compound = "CCCn1c(C)nc2c(NCCCCN(CC)CC)nc(C)nc21"
cat = "inactive"

[[record]]
compound = "C=C/C1=C/Cc2ccccc2[C@H](C[N+](=O)[O-])C(C(=O)OC)(C(=O)OC)C1"
cat = "inactive"

[[record]]
compound = "Cc1ccc(Br)cc1"
cat = "inactive"

[[record]]
compound = "Nc1ccc2nc3c(=O)[nH]c(=S)[nH]c3nc2c1"
cat = "active"

[[record]]
compound = "COc1ccccc1CNc1ccnc(-c2c(C)noc2C)n1"
cat = "inactive"

[[record]]
compound = "Cc1ccc(C(=O)Nc2ccc3c(c2)OCO3)cc1S(=O)(=O)N1CCCCC1"
cat = "inactive"

[[record]]
compound = "O=C(NCc1ccccn1)c1ccc2nc(-c3ccco3)c(-c3ccco3)nc2c1"
cat = "active"

[[record]]
compound = "Cc1ccc(-c2nn(-c3ccccc3)cc2/C=C2\\SC(=S)N(CCCCCC(=O)O)C2=O)o1"
cat = "inactive"

[[record]]
compound = "O=C(Nc1nc(-c2ccco2)c(-c2ccco2)s1)c1ccco1"
cat = "inactive"

